src = ChEMBL document CHEMBL4602633

- target-of-assay: Aldehyde dehydrogenase 1A1 (Homo sapiens)
- protocol-summary: Inhibition of N-terminal Met/His6-tagged recombinant human ALDH1A1 (Ser2-Ser501 residues) expressed in Escherichia coli cells at 10 uM using propionaldehyde as substrate preincubated for 15 mins followed by substrate addition by spectrophotometric method relative to control
measurement-label: inhibition (%)

Solved cases below.
CCN(C(=O)CCN1CCN(C(=O)c2ccco2)CC1)c1ccc2c(C)cc(=O)oc2c1: 61.8
CC(C)=CCN(C(=O)CCN1CCN(C(=O)c2cccc([N+](=O)[O-])c2)CC1)c1ccc2c(C)cc(=O)oc2c1: 55.4
CC(C)=CCN(C(=O)CCN1CCN(C(=O)c2ccc(C(F)(F)F)cc2)CC1)c1ccc2c(C)cc(=O)oc2c1: 33.7

a = CC(C)=CCN(C(=O)CCN1CCN(C(=O)c2ccc3c(c2)OCO3)CC1)c1ccc2c(C)cc(=O)oc2c1
b = CC(C)=CCN(C(=O)CCN1CCN(C(=O)c2ccc(C#N)cc2)CC1)c1ccc2c(C)cc(=O)oc2c1
# argmax over inhibition for candidates a and b Returns: label corresponding to the selected item.
a
(a: 50.8%, b: 34.1%)
